As shown below, each of these variants has a reported protein stability index value.
B1: MYOZ1 (parent)
chain: FSDSSMDHFQKFLPTVGGQLGTAG

Variants of: B1
experimental.protocol: protein stability index of a GFP-peptide fusion (GPS, HEK-293T) (PSI 1-6); higher = more stable;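 note: lentivirally expressed fusions sorted by FACS into six bins by GFP to DsRed ratio, PSI derived from sequencing read proportions per bin multiplied by bin number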
protocol.conditions: c terminus: a fixed tail appended

>>> obs_value("G17S")
2.26
>>> obs_value("A23W")
2.01
>>> obs_value("D7T")
2.15
>>> obs_value("S4Y")
1.61
>>> obs_value("V16L")
2.28

Asked: // lookup protein stability index for L13M
Given back: 3.29

Asked: // lookup protein stability index for G24P
Given back: 2.25

Asked: // lookup protein stability index for G21P
Given back: 2.54

Asked: // lookup protein stability index for G21E
Given back: 2.35

Asked: // lookup protein stability index for Q19D
Given back: 2.58
